Data provenance is patent US8372807B2.

- study.system: hURAT1 transporter (URAT-1) (Homo sapiens, UniProt Q96S37)
- Construct: Full-length human URAT1 gene (SLC22A12) was subcloned from plasmid pCMV6-XL5
- Sequence (Q96S37 whole entry): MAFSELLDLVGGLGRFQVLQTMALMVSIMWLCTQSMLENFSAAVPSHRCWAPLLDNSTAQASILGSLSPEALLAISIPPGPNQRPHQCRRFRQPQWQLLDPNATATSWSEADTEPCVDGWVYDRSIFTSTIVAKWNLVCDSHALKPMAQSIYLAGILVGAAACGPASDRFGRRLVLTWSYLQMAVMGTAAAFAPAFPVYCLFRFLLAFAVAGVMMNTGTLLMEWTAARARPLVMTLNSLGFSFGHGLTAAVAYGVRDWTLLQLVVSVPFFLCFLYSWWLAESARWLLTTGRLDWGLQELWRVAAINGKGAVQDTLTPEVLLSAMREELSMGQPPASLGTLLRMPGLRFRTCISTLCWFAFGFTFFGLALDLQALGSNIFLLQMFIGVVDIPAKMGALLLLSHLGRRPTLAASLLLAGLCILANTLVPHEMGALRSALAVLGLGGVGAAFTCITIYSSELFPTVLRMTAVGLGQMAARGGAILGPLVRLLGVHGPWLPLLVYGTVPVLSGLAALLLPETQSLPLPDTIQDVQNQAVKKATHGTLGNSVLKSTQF
- assay.remarks: Uric Acid Uptake Assay (URAT-1 EC50)
- Assay type: cell-based
- condition.summary: HEK293/urat1 cells, C14 uric acid uptake, 40 μM uric acid, 10 minutes at room temperature

compound	EC50
CC(C)(Sc1nnnn1-c1cccc2ccccc12)C(=O)O [Example 30]	< 5 µM
Cc1[nH]nc(OC(C)(C)C(=O)O)c1-c1cccc2ccccc12 [26 (step D)]	< 5 µM
CC(C)(Oc1ccnn1-c1cccc2ccccc12)C(=O)O [Example 24]	5 to 20 µM
CCOC(=O)C(C)(C)Oc1n[nH]c(C)c1-c1cccc2ccccc12 [26 (step C)]	< 5 µM
CC(C)(Sc1cnnn1-c1cccc2ccccc12)C(=O)O [Example 28]	< 5 µM
O=C(O)CSc1snnc1-c1cccc2ccccc12 [Example 32]	5 to 20 µM
CC(C)(Sc1ccnn1-c1cccc2ccccc12)C(=O)O [Example 25]	< 5 µM
